- study_target: CYP1A2 (Homo sapiens)
- Sequence (P05177 whole entry): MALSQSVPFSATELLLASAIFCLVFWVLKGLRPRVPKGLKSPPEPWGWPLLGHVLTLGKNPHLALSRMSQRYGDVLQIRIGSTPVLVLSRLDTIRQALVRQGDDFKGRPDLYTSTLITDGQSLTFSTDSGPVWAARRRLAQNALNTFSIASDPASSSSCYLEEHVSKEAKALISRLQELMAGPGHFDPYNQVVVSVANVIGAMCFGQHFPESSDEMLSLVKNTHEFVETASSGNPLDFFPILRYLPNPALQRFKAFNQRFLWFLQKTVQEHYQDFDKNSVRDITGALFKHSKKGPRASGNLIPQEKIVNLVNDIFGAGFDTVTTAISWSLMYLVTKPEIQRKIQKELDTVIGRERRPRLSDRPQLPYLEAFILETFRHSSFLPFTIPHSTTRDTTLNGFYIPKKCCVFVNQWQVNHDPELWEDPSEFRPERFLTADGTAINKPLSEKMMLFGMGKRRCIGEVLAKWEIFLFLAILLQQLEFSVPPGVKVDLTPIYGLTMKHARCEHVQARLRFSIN
- experiment: CYP inhibition CYP1A2
- Type: in vitro ADME
reported_metric: IC50 (nM)

• Fc1ccc(Nc2c(-c3ccccn3)nc3ccc(C4CC4)cn23)cc1 [Compound 3p] = 590

###

Protein target, amino acids: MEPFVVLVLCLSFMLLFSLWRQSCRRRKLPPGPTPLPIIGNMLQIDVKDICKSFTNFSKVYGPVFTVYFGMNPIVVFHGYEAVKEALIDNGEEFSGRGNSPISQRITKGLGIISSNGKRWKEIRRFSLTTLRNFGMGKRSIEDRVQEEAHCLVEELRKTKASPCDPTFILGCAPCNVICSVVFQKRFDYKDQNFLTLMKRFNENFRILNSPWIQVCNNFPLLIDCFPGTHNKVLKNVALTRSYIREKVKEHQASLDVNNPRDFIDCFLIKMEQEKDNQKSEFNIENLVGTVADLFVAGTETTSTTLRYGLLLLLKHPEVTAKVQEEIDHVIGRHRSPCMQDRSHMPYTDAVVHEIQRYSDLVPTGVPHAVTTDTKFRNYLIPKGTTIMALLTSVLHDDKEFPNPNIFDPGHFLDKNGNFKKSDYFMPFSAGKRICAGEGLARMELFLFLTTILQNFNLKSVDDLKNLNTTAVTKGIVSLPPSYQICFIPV
pIC50: −log10 of the molar value.
reported_metric: pIC50

• Fc1ccc(Nc2c(-c3ccccn3)nc3ccc(C4CC4)cn23)cc1 = 5.31
